tested on: ECHCG; assay: Post-emergence herbicidal action against ECHCG; type: in vivo, Echinochloa crus-galli; details: application rate 80 g/ha, rated visually after about 3 weeks
READOUT TYPE: Herbicidal action against [%] ECHCG (%)

COC(=O)[C@@H]1C=C[C@H](NC(=O)C2(C(F)(F)F)CC(c3cc(F)cc(C#N)c3)=NO2)C1 (single isomer, unassigned) [Example I-097] | 90
Cc1cc(C)cc(C2=NOC(C(=O)NC3C=CC(C(=O)OCCCl)C3)(C(F)(F)F)C2)c1 (mixture of isomers) | 80
COCCOC(=O)C1C=CC(NC(=O)C2(C(F)(F)F)CC(c3cc(F)cc(C#N)c3)=NO2)C1 (centres unmarked) [Example I-099] | 80
CC1(C(=O)NC2C=CC(C(=O)OCCCl)C2)CC(c2cc(F)cc(C#N)c2)=NO1 (mixture of isomers) | 90
CCOC(=O)[C@@H]1C=C[C@H](NC(=O)C2(C(F)(F)F)CC(c3cc(C)cc(F)c3)=NO2)C1 (some centres unmarked) | 80
COCCOC(=O)[C@@H]1C=C[C@H](NC(=O)[C@@]2(C(F)(F)F)CC(c3cc(F)cc(F)c3)=NO2)C1 | 90
O=C(OCCCl)C1C=CC(NC(=O)C2(C(F)(F)F)CC(c3cccc(Cl)c3)=NO2)C1 (mixture of isomers) | 80
C=CC1(C(=O)N[C@H]2CC=C(C(=O)OCCOCC)C2)CC(c2cc(F)cc(F)c2)=NO1 (some centres unmarked) | 90
O=C(OCC(F)(F)F)C1C=CC(NC(=O)C2(C(F)(F)F)CC(c3cc(F)cc(F)c3)=NO2)C1 (mixture of isomers) | 90
COC(=O)C1=CC[C@H](NC(=O)C2(C)CC(c3cc(F)cc(F)c3)=NO2)C1 (some centres unmarked) | 90
CCOC(=O)C1C=CC(NC(=O)C2(C)CC(c3cc(F)cc(C#N)c3)=NO2)C1 (mixture of isomers) | 100
CC1(C(=O)N[C@H]2CC=C(C(=O)O)C2)CC(c2cccc(F)c2)=NO1 (some centres unmarked) | 90
C=CC1(C(=O)NC2C=CC(C(=O)N3CCCO3)C2)CC(c2cc(F)cc(F)c2)=NO1 (centres unmarked) [II-27] | 90
C=CC1(C(=O)NC2C=CC(C(=O)NC(C(=O)OC)C(C)C)C2)CC(c2cc(F)cc(F)c2)=NO1 (single isomer, unassigned) [II-26] | 80

###

system: STEME; test: Post-emergence herbicidal action against STEME; assay type: in vivo, Stellaria media; conditions: application rate 80 g/ha, rated visually about 3 weeks after treatment
READOUT TYPE: Herbicidal action against [%] STEME (%)

O=C(OCc1ccccc1)C1C=CC(NC(=O)C2(C(F)(F)F)CC(c3cc(F)cc(F)c3)=NO2)C1 (mixture of isomers) | 90
COC(=O)[C@@H]1C=C[C@H](NC(=O)C2(C)CC(c3cccc(F)c3)=NO2)C1 (stereo partly drawn) | 80
CCOC(=O)C1C=CC(NC(=O)C2(C(F)(F)F)CC(c3cc(Cl)cc(Cl)c3)=NO2)C1 (mixture of isomers) | 90
COC(=O)C1C=CC(NC(=O)C2(C)CC(c3cc(F)cc(C#N)c3)=NO2)C1 (mixture of isomers) | 100
COC(=O)C1C=CC(NC(=O)C2(C(F)(F)F)CC(c3cccc(Cl)c3)=NO2)C1 (mixture of isomers) | 90
N#Cc1cc(F)cc(C2=NOC(C(=O)NC3C=CC(C(=O)O)C3)(C(F)(F)F)C2)c1 (mixture of isomers) | 90
CCONC(=O)[C@@H]1C=C[C@H](NC(=O)C2(C)CC(c3cccc(F)c3)=NO2)C1 (stereo partly drawn) | 80
COC(=O)C1C=CC(NC(=O)C2(C(F)(F)F)CC(c3cc(F)cc(F)c3)=NO2)C1 (mixture of isomers) | 90
C=CC1(C(=O)N[C@H]2CC=C(C(=O)OCC)C2)CC(c2cc(F)cc(F)c2)=NO1 (stereo partly drawn) | 90
C=CC1(C(=O)N[C@H]2C=C[C@@H](C(=O)OCC(F)(F)F)C2)CC(c2cc(F)cc(F)c2)=NO1 (stereo partly drawn) | 100
CC(C)(C#N)NC(=O)C1C=CC(NC(=O)C2(C(F)(F)F)CC(c3cc(F)cc(F)c3)=NO2)C1 (mixture of isomers) | 90
C=CC1(C(=O)N[C@H]2CC=C(C(=O)OCCOCC)C2)CC(c2cc(F)cc(F)c2)=NO1 (stereo partly drawn) | 80
CC(C)OC(=O)C1C=CC(NC(=O)C2(C(F)(F)F)CC(c3cc(F)cc(F)c3)=NO2)C1 (mixture of isomers) | 80
N#Cc1cc(F)cc(C2=NOC(C(=O)NC3C=CC(C(=O)OCCCl)C3)(C(F)(F)F)C2)c1 (mixture of isomers) | 90
CCCS(=O)(=O)NC(=O)C1C=CC(NC(=O)C2(C(F)(F)F)CC(c3cc(F)cc(F)c3)=NO2)C1 (mixture of isomers) | 80
CC1(C(=O)N[C@H]2C=C[C@@H](C(=O)O)C2)CC(c2cccc(F)c2)=NO1 (stereo partly drawn) | 90
CC1(C(=O)N[C@H]2C=C[C@@H](C(=O)N3CCCO3)C2)CC(c2cc(F)cc(F)c2)=NO1 (stereo partly drawn) | 80
O=C(C1C=CC(NC(=O)C2(C(F)(F)F)CC(c3cc(F)cc(F)c3)=NO2)C1)N1CCCCO1 (mixture of isomers) | 90
COC(=O)C(NC(=O)C1C=CC(NC(=O)C2(C(F)(F)F)CC(c3cc(F)cc(F)c3)=NO2)C1)C(C)C (mixture of isomers) | 90
Cc1cc(C)cc(C2=NOC(C(=O)NC3C=CC(C(=O)OCCCl)C3)(C(F)(F)F)C2)c1 (mixture of isomers) | 90
CC1(C(=O)NC2C=CC(C(=O)N3CCCCO3)C2)CC(c2cc(F)cc(F)c2)=NO1 (mixture of isomers) | 90
COCCOC(=O)C1C=CC(NC(=O)C2(C)CC(c3cc(F)cc(C#N)c3)=NO2)C1 (mixture of isomers) | 90
C=CC1(C(=O)NC2C=CC(C(=O)NC(C)(C)C#N)C2)CC(c2cc(F)cc(F)c2)=NO1 (mixture of isomers) | 80
COc1cc(OC)cc(C2=NOC(C(=O)NC3C=CC(C(=O)OCC(F)(F)F)C3)(C(F)(F)F)C2)c1 (mixture of isomers) | 80
C=CC1(C(=O)NC2C=CC(C(=O)OC)C2)CC(c2cc(F)cc(F)c2)=NO1 (stereo not drawn) [Example I-012] | 80
COCCOC(=O)[C@@H]1C=C[C@H](NC(=O)[C@@]2(C(F)(F)F)CC(c3cc(F)cc(F)c3)=NO2)C1 | 90
CC1(C(=O)NC2C=CC(C(=O)O)C2)CC(c2cc(F)cc(C#N)c2)=NO1 (mixture of isomers) | 90
